- EXPERIMENTAL_TARGET: T1, alpha-s1 casein from Bos taurus
- T1 chain: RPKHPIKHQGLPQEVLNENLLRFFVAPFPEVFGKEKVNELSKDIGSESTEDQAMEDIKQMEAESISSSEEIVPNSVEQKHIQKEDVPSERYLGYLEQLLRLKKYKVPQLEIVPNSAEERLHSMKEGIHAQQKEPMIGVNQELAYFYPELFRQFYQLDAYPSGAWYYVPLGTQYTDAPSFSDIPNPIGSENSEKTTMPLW
RESULT_TYPE: αs1-I CN, 6 hours, 11° C. (Volume)
Lab book: enter the figure in Volume, no units written.

Suppose we examine the protein camel chymosin variant #148 (Q288N) (protein) GKVAREPLTSYLDSQYFGKIYIGTPPQEFTVVFDTGSSDLWVPSIYCKSNVCKNHHRFDPRKSSTFRNLGKPLSIHYGTGSMEGFLGYDTVTVSNIVDPNQTVGLSTEQPGEVFTYSEFDGILGLAYPSLASEYSVPVFDNMMDRHLVARDLFSVYMDRNGQGSMLTLGAIDPSYYTGSLHWVPVTLQQYWQFTVDSVTINGVAVACVGGCQAILDTGTSVLFGPSSDILKIQMAIGATENRYGEFDVNCGNLRSMPTVVFEINGRDYPLSPSAYTSKDQGFCTSGFNGDNNSELWILGDVFIREYYSVFDRANNRVGLAKAI ; what αs1-I CN, 6 hours, 11° C. value has been reported?
1.74e+07

Suppose we examine the protein camel chymosin variant #156 (D290S) (protein) GKVAREPLTSYLDSQYFGKIYIGTPPQEFTVVFDTGSSDLWVPSIYCKSNVCKNHHRFDPRKSSTFRNLGKPLSIHYGTGSMEGFLGYDTVTVSNIVDPNQTVGLSTEQPGEVFTYSEFDGILGLAYPSLASEYSVPVFDNMMDRHLVARDLFSVYMDRNGQGSMLTLGAIDPSYYTGSLHWVPVTLQQYWQFTVDSVTINGVAVACVGGCQAILDTGTSVLFGPSSDILKIQMAIGATENRYGEFDVNCGNLRSMPTVVFEINGRDYPLSPSAYTSKDQGFCTSGFQGSNNSELWILGDVFIREYYSVFDRANNRVGLAKAI ; what αs1-I CN, 6 hours, 11° C. value has been reported?
1.7e+07

Suppose we examine the protein camel chymosin variant #151 (D290A) (protein) GKVAREPLTSYLDSQYFGKIYIGTPPQEFTVVFDTGSSDLWVPSIYCKSNVCKNHHRFDPRKSSTFRNLGKPLSIHYGTGSMEGFLGYDTVTVSNIVDPNQTVGLSTEQPGEVFTYSEFDGILGLAYPSLASEYSVPVFDNMMDRHLVARDLFSVYMDRNGQGSMLTLGAIDPSYYTGSLHWVPVTLQQYWQFTVDSVTINGVAVACVGGCQAILDTGTSVLFGPSSDILKIQMAIGATENRYGEFDVNCGNLRSMPTVVFEINGRDYPLSPSAYTSKDQGFCTSGFQGANNSELWILGDVFIREYYSVFDRANNRVGLAKAI ; what αs1-I CN, 6 hours, 11° C. value has been reported?
2.29e+07

Suppose we examine the protein camel chymosin variant #143 (F223V) (protein) GKVAREPLTSYLDSQYFGKIYIGTPPQEFTVVFDTGSSDLWVPSIYCKSNVCKNHHRFDPRKSSTFRNLGKPLSIHYGTGSMEGFLGYDTVTVSNIVDPNQTVGLSTEQPGEVFTYSEFDGILGLAYPSLASEYSVPVFDNMMDRHLVARDLFSVYMDRNGQGSMLTLGAIDPSYYTGSLHWVPVTLQQYWQFTVDSVTINGVAVACVGGCQAILDTGTSVLVGPSSDILKIQMAIGATENRYGEFDVNCGNLRSMPTVVFEINGRDYPLSPSAYTSKDQGFCTSGFQGDNNSELWILGDVFIREYYSVFDRANNRVGLAKAI ; what αs1-I CN, 6 hours, 11° C. value has been reported?
2.62e+07

Suppose we examine the protein camel chymosin variant #165 (L295W) (protein) GKVAREPLTSYLDSQYFGKIYIGTPPQEFTVVFDTGSSDLWVPSIYCKSNVCKNHHRFDPRKSSTFRNLGKPLSIHYGTGSMEGFLGYDTVTVSNIVDPNQTVGLSTEQPGEVFTYSEFDGILGLAYPSLASEYSVPVFDNMMDRHLVARDLFSVYMDRNGQGSMLTLGAIDPSYYTGSLHWVPVTLQQYWQFTVDSVTINGVAVACVGGCQAILDTGTSVLFGPSSDILKIQMAIGATENRYGEFDVNCGNLRSMPTVVFEINGRDYPLSPSAYTSKDQGFCTSGFQGDNNSEWWILGDVFIREYYSVFDRANNRVGLAKAI ; what αs1-I CN, 6 hours, 11° C. value has been reported?
3.09e+07

Suppose we examine the protein camel chymosin variant #164 (L295Y) (protein) GKVAREPLTSYLDSQYFGKIYIGTPPQEFTVVFDTGSSDLWVPSIYCKSNVCKNHHRFDPRKSSTFRNLGKPLSIHYGTGSMEGFLGYDTVTVSNIVDPNQTVGLSTEQPGEVFTYSEFDGILGLAYPSLASEYSVPVFDNMMDRHLVARDLFSVYMDRNGQGSMLTLGAIDPSYYTGSLHWVPVTLQQYWQFTVDSVTINGVAVACVGGCQAILDTGTSVLFGPSSDILKIQMAIGATENRYGEFDVNCGNLRSMPTVVFEINGRDYPLSPSAYTSKDQGFCTSGFQGDNNSEYWILGDVFIREYYSVFDRANNRVGLAKAI ; what αs1-I CN, 6 hours, 11° C. value has been reported?
1.59e+07

Suppose we examine the protein bovine chymosin B variant #74 (A51V, K221M) (protein) GEVASVPLTNYLDSQYFGKIYLGTPPQEFTVLFDTGSSDFWVPSIYCKSNVCKNHQRFDPRKSSTFQNLGKPLSIHYGTGSMQGILGYDTVTVSNIVDIQQTVGLSTQEPGDVFTYAEFDGILGMAYPSLASEYSIPVFDNMMNRHLVAQDLFSVYMDRNGQESMLTLGAIDPSYYTGSLHWVPVTVQQYWQFTVDSVTISGVVVACEGGCQAILDTGTSMLVGPSSDILNIQQAIGATQNQYGEFDIDCDNLSYMPTVVFEINGKMYPLTPSAYTSQDQGFCTSGFQSENHSQKWILGDVFIREYYSVFDRANNLVGLAKAI ; what αs1-I CN, 6 hours, 11° C. value has been reported?
1.98e+07

Suppose we examine the protein camel chymosin variant #167 (I297V) (protein) GKVAREPLTSYLDSQYFGKIYIGTPPQEFTVVFDTGSSDLWVPSIYCKSNVCKNHHRFDPRKSSTFRNLGKPLSIHYGTGSMEGFLGYDTVTVSNIVDPNQTVGLSTEQPGEVFTYSEFDGILGLAYPSLASEYSVPVFDNMMDRHLVARDLFSVYMDRNGQGSMLTLGAIDPSYYTGSLHWVPVTLQQYWQFTVDSVTINGVAVACVGGCQAILDTGTSVLFGPSSDILKIQMAIGATENRYGEFDVNCGNLRSMPTVVFEINGRDYPLSPSAYTSKDQGFCTSGFQGDNNSELWVLGDVFIREYYSVFDRANNRVGLAKAI ; what αs1-I CN, 6 hours, 11° C. value has been reported?
2.02e+07
